Measured target: Ba/F3 stable cells (Homo sapiens, UniProt P00533, DUP771-773, cells depend on it)
Construct: EC50 Ba/F3-EGFR H773-V774insNPH; other: Ba/F3-EGFR H773-V774insNPH cells, 72 h, CCK-8
Sequence (P00533 with tags, fused parts or gaps DUP771-773): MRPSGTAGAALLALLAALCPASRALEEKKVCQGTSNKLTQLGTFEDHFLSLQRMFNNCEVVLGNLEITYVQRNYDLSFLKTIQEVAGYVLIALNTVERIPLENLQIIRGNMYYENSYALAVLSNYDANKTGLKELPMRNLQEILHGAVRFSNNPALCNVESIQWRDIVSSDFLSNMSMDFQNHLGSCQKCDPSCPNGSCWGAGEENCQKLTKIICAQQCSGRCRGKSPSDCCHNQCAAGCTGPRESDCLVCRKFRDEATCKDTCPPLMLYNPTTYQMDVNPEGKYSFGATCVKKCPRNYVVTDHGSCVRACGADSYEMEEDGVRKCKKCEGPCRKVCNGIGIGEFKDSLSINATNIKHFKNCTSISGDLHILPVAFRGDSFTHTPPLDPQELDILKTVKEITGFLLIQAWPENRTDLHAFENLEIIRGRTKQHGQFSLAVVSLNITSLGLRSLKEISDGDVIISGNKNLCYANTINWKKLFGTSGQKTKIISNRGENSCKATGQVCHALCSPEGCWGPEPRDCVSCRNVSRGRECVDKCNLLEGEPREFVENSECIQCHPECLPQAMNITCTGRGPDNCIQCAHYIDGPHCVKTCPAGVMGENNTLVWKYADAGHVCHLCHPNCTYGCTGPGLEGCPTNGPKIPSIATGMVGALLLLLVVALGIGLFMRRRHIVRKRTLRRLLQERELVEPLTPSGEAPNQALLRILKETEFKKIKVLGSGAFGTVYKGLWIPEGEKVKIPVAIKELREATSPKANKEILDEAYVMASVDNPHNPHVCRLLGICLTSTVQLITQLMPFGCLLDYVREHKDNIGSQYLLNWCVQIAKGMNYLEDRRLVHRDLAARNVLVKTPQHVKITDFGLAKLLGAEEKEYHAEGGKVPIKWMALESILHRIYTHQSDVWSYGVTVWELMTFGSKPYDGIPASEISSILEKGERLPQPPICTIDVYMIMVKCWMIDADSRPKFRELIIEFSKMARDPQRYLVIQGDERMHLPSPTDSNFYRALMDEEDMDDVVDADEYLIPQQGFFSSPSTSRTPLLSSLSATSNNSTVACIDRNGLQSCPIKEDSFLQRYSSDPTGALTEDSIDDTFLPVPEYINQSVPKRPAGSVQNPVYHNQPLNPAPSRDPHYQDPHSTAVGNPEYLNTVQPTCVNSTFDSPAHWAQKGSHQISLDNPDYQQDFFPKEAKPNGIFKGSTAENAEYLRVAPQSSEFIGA
Assay info: EC50 assay: Ba/F3 stable cell proliferation (CCK-8, 72 h)
Condition: Ba/F3-EGFR H773-V774insNPH cells
pEC50: −log10 of the molar value.
Listed molecules paired with reported pEC50

Record request: pEC50 value, item C=CC(=O)N1CCC(Oc2cc3c(NCc4ccc(Cl)c(Cl)c4)ncnc3cc2OC)CC1 [Compound 115] < 6.00

For C=CC(=O)N1CCC(Oc2cc3c(Nc4cccc5cccnc45)ncnc3cc2OC)CC1 [Compound 146] then? 6.00 to 6.70

For C=CC(=O)N1CCC(Oc2cc3c(N4CCN(c5cccc(Cl)c5)CC4)ncnc3cc2OC)CC1 [Compound 147] then? < 6.00

For C=CC(=O)N1CCC(Oc2cc3c(Nc4cccc5cc[nH]c45)ncnc3cc2OC)CC1 [Compound 166] then? ≥ 6.70

For C=CC(=O)N1CCC(Oc2cc3c(NCc4cccc(Cl)c4)ncnc3cc2OC)CC1 [Compound 106] then? ≥ 6.70

For C=CC(=O)N1CC(c2cc3c(Nc4ccc(Cl)c(Cl)c4F)ncnc3cc2OCCN(C)C)C1 [Compound 26] then? 6.00 to 6.70

====

Measured target: Ba/F3 stable cells (Homo sapiens, UniProt P00533, T790M/L858R, cells depend on it)
Construct: EC50 Ba/F3-EGFR L858R-T790M; other: Ba/F3-EGFR L858R-T790M cells, 72 h, CCK-8
Sequence (P00533 whole entry T790M/L858R): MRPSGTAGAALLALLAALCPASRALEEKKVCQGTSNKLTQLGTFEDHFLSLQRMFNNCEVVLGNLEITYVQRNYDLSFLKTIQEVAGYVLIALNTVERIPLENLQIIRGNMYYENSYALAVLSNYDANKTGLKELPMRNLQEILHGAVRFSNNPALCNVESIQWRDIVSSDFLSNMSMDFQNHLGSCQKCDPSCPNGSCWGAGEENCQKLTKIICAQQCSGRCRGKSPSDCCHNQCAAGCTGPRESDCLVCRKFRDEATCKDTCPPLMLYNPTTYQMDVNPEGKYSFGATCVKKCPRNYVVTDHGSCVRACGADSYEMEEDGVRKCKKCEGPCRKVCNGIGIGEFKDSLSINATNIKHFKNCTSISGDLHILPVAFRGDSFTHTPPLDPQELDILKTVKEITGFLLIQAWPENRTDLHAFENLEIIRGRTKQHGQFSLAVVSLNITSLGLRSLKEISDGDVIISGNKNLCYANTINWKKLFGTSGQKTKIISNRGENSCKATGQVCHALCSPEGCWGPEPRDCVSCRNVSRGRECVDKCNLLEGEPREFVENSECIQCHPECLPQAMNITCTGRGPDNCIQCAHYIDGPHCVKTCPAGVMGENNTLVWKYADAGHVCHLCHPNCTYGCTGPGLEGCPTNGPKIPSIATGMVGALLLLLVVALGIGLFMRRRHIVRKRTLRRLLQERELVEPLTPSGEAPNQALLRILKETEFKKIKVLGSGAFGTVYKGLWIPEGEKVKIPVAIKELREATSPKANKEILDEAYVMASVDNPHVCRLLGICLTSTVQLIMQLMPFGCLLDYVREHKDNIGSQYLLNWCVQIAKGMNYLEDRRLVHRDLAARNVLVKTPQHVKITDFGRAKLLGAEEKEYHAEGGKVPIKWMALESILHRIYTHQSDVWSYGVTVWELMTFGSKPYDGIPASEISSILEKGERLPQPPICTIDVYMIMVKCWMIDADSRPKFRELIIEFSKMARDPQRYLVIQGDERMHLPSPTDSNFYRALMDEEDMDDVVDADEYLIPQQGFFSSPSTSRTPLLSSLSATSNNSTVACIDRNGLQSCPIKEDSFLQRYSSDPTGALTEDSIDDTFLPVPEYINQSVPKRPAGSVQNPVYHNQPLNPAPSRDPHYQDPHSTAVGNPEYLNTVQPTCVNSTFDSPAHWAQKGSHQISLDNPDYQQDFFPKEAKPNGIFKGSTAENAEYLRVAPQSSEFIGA
Assay info: EC50 assay: Ba/F3 stable cell proliferation (CCK-8, 72 h)
Condition: Ba/F3-EGFR L858R-T790M cells
pEC50: −log10 of the molar value.
Experimental endpoint: pEC50

Some entries whose results are on file:
>  <Compound>
C=CC(=O)NC1CC(Oc2cc3c(Nc4ccc(F)c5c4CCC5=O)ncnc3cc2OC)C1 (stereo not shown) [Compound 68]

>  <pEC50>
< 6.00

$$$$
>  <Compound>
C=CC(=O)N1CC(c2cc3c(Nc4ccc(Cl)c(Cl)c4F)ncnc3cc2OC(F)F)C1 [Compound 23]

>  <pEC50>
≥ 6.70

$$$$
>  <Compound>
C#CC(=O)N1C2CCCC1CC(Oc1cc3c(Nc4cccc5ccccc45)ncnc3cc1OC)C2 (stereo not shown) [Compound 57]

>  <pEC50>
≥ 6.70

$$$$

Record request: pEC50 value, item C=CC(=O)N1CCC(Oc2cc3c(N4CCN(c5cccc(Cl)c5)CC4)ncnc3cc2OC)CC1 [Compound 147] < 6.00

For C=CC(=O)N1CCC(Oc2cc3c(Nc4ccc5[nH]ccc5c4)ncnc3cc2OC)CC1 [Compound 169] then? 6.00 to 6.70

For C=CC(=O)N1CCC(Oc2cc3c(Nc4ccc5scnc5c4)ncnc3cc2OC)CC1 [Compound 142] then? 6.00 to 6.70

For C=CC(=O)N1CCC(Oc2cc3c(Nc4ccc5ccccc5n4)ncnc3cc2OC)CC1 [Compound 158] then? ≥ 6.70

====

Measured target: Ba/F3 stable cells (Homo sapiens, UniProt P00533, T790M/L858R, cells depend on it)
Construct: EC50 Ba/F3-EGFR L858R-T790M; other: Ba/F3-EGFR L858R-T790M cells, 72 h, CCK-8
Assay info: EC50 assay: Ba/F3 stable cell proliferation (CCK-8, 72 h)
Condition: Ba/F3-EGFR L858R-T790M cells
Listed compounds paired with reported EC50

>  <Compound>
C=CC(=O)N1C2CCCC1CC(Oc1cc3c(Nc4cccc5ccccc45)ncnc3cc1OC)C2 (stereo not drawn)

>  <EC50>
≤ 200 nM

$$$$
>  <Compound>
C=CC(=O)N1CCC(c2ccc3ncnc(Nc4ccc(Cl)c(Cl)c4F)c3c2)CC1

>  <EC50>
> 1000 nM

$$$$
>  <Compound>
C=CS(=O)(=O)N1CCCC(c2ccc3ncnc(Nc4ccc(Cl)c(Cl)c4F)c3c2)C1 (stereo not drawn)

>  <EC50>
≤ 200 nM

$$$$
>  <Compound>
C#CC(=O)N1CCC(Oc2cc3c(Nc4ccc5ccccc5c4)ncnc3cc2OC)CC1

>  <EC50>
≤ 200 nM

$$$$
>  <Compound>
CC#CC(=O)NC1CC(Oc2cc3c(Nc4ccc(Cl)c(Cl)c4F)ncnc3cc2OC)C1 (stereo not drawn)

>  <EC50>
> 1000 nM

$$$$

Below: the item to evaluate.
Record request: EC50 value, item C=CC(=O)N1CCC(Oc2c(OC)cc3ncnc4c3c2C=C(C)N4c2ccc(Cl)c(Cl)c2F)CC1 200 to 1000 nM
